All figures here come from ChEMBL document CHEMBL1140372.

Target: Sodium-dependent serotonin transporter (Mus musculus)
Experiment: Effective dose against potentiation of 5-HTP induced serotonin syndrome in mice upon oral administration (Serotonin reuptake inhibitory activity)
Assay type: functional, organism-based
Recorded metric: log10 of ED50 (log10 of the value in mg/kg)
Base-10 log of ED50, unit mg/kg.

Bench note, Sodium-dependent serotonin transporter (Mus musculus): O=C1CCc2c(cccc2N2CCN(CCCc3c[nH]c4ccccc34)CC2)N1 , log10 of ED50 reads 0.95

Bench note, Sodium-dependent serotonin transporter (Mus musculus): Fc1ccc2[nH]cc(CCCN3CCN(c4cccc5c4OCCO5)CC3)c2c1 , log10 of ED50 reads 0.30

Bench note, Sodium-dependent serotonin transporter (Mus musculus): C[C@@H]1Oc2c(cccc2N2CCN(CCCc3c[nH]c4ccc(F)cc34)CC2)NC1=O , log10 of ED50 reads -0.15

Bench note, Sodium-dependent serotonin transporter (Mus musculus): Clc1ccc2c(CCCN3CCN(c4cccc5c4OCCO5)CC3)c[nH]c2c1 , log10 of ED50 reads 1.93

Bench note, Sodium-dependent serotonin transporter (Mus musculus): C[C@H]1Oc2c(cccc2N2CCN(CCCc3c[nH]c4ccccc34)CC2)NC1=O , log10 of ED50 reads 0.48

Bench note, Sodium-dependent serotonin transporter (Mus musculus): C[C@H]1Oc2c(cccc2N2CCN(CCCc3c[nH]c4c(F)cccc34)CC2)NC1=O , log10 of ED50 reads 1.48

Bench note, Sodium-dependent serotonin transporter (Mus musculus): C[C@@H]1Oc2c(cccc2N2CCN(CCCc3c[nH]c4c(F)cccc34)CC2)NC1=O , log10 of ED50 reads 1.00

Bench note, Sodium-dependent serotonin transporter (Mus musculus): Fc1ccc2c(CCCN3CCN(c4cccc5c4OCCO5)CC3)c[nH]c2c1 , log10 of ED50 reads 1.48

Bench note, Sodium-dependent serotonin transporter (Mus musculus): Fc1cccc2c(CCCN3CCN(c4cccc5c4OCCO5)CC3)c[nH]c12 , log10 of ED50 reads 1.45

Bench note, Sodium-dependent serotonin transporter (Mus musculus): CC1Oc2c(N3CCN(CCCc4c[nH]c5ccccc45)CC3)cccc2N(C)C1=O (configuration not stated) , log10 of ED50 reads 0.75

Bench note, Sodium-dependent serotonin transporter (Mus musculus): c1cc2c(c(N3CCN(CCCc4c[nH]c5ccccc45)CC3)c1)OCCN2 , log10 of ED50 reads 2.00

Bench note, Sodium-dependent serotonin transporter (Mus musculus): O=C1COc2c(cccc2N2CCN(CCCc3c[nH]c4ccccc34)CC2)N1 , log10 of ED50 reads 1.48

Bench note, Sodium-dependent serotonin transporter (Mus musculus): c1cc2c(c(N3CCN(CCCc4c[nH]c5ccccc45)CC3)c1)CCCO2 , log10 of ED50 reads 2.00

Bench note, Sodium-dependent serotonin transporter (Mus musculus): c1cc2c(c(N3CCN(CCCc4c[nH]c5ccccc45)CC3)c1)OCCO2 , log10 of ED50 reads 1.34

Bench note, Sodium-dependent serotonin transporter (Mus musculus): CC1Oc2c(cccc2N2CCN(CCCc3c[nH]c4ccccc34)CC2)NC1=O (configuration not stated) , log10 of ED50 reads 0.48

Bench note, Sodium-dependent serotonin transporter (Mus musculus): C[C@H]1Oc2c(cccc2N2CCN(CCCc3c[nH]c4ccc(F)cc34)CC2)NC1=O , log10 of ED50 reads -0.82

Bench note, Sodium-dependent serotonin transporter (Mus musculus): Fc1cccc2[nH]cc(CCCN3CCN(c4cccc5c4OCCO5)CC3)c12 , log10 of ED50 reads 1.51

Bench note, Sodium-dependent serotonin transporter (Mus musculus): CC1(C)Oc2c(cccc2N2CCN(CCCc3c[nH]c4ccccc34)CC2)NC1=O , log10 of ED50 reads 0.86

Bench note, Sodium-dependent serotonin transporter (Mus musculus): c1cc2c(c(N3CCN(CCCc4c[nH]c5ccccc45)CC3)c1)CCCN2 , log10 of ED50 reads 1.18

###

Please go through the items and note down their log10 of Ki.
Target: D(2) dopamine receptor (Homo sapiens, UniProt P14416)
Sequence (P14416 whole entry): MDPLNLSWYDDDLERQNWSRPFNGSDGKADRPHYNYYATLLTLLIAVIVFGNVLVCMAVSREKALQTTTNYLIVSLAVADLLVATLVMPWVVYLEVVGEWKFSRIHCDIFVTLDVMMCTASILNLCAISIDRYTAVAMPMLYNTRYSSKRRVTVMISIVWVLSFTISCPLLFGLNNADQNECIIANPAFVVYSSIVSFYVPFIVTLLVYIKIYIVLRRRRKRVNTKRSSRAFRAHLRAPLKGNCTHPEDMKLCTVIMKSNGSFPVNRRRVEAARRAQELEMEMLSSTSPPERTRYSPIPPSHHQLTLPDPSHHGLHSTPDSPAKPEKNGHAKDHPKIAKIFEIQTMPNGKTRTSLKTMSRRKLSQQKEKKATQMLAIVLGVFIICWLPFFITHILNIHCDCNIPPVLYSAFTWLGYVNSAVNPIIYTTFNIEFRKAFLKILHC
Test: In vitro inhibitory constant against [3H]spiperone binding to human dopamine D2 receptor expressed in CHO cells
Format: cell-based
Base-10 log of Ki, unit µM.

The value of log10 of Ki measured for the molecule Clc1ccc2c(CCCN3CCN(c4cccc5c4OCCO5)CC3)c[nH]c2c1 turned out to be -2.68

The value of log10 of Ki measured for the molecule Clc1ccc2[nH]cc(CCCN3CCN(c4cccc5c4OCCO5)CC3)c2c1 turned out to be -1.50

The value of log10 of Ki measured for the molecule c1cc2c(c(N3CCN(CCCc4c[nH]c5ccccc45)CC3)c1)OCCN2 turned out to be -1.75

The value of log10 of Ki measured for the molecule c1cc2c(c(N3CCN(CCCc4c[nH]c5ccccc45)CC3)c1)CCCO2 turned out to be -1.69

The value of log10 of Ki measured for the molecule C[C@@H]1Oc2c(cccc2N2CCN(CCCc3c[nH]c4c(F)cccc34)CC2)NC1=O turned out to be -3.00

The value of log10 of Ki measured for the molecule Clc1cccc2[nH]cc(CCCN3CCN(c4cccc5c4OCCO5)CC3)c12 turned out to be -1.62

The value of log10 of Ki measured for the molecule C[C@H]1Oc2c(cccc2N2CCN(CCCc3c[nH]c4ccccc34)CC2)NC1=O turned out to be -2.06

The value of log10 of Ki measured for the molecule O=C1CCc2c(cccc2N2CCN(CCCc3c[nH]c4ccccc34)CC2)N1 turned out to be -1.94

###

Target: D(2) dopamine receptor (Homo sapiens, UniProt P14416)
Experiment: In vitro inhibitory constant against [3H]spiperone binding to human dopamine D2 receptor expressed in CHO cells
Format: cell-based
Recorded metric: log10 Ki (log10 of the value in nM)
Base-10 log of Ki, unit nM.

The value of log10 Ki measured for the compound C[C@H]1Oc2c(cccc2N2CCN(CCCc3c[nH]c4c(F)cccc34)CC2)NC1=O turned out to be 0.72

The value of log10 Ki measured for the compound Clc1cccc2c(CCCN3CCN(c4cccc5c4OCCO5)CC3)c[nH]c12 turned out to be 1.19

The value of log10 Ki measured for the compound Fc1cccc2[nH]cc(CCCN3CCN(c4cccc5c4OCCO5)CC3)c12 turned out to be 0.91

The value of log10 Ki measured for the compound Fc1cccc2c(CCCN3CCN(c4cccc5c4OCCO5)CC3)c[nH]c12 turned out to be 1.03

The value of log10 Ki measured for the compound CC1CNc2cccc(N3CCN(CCCc4c[nH]c5ccccc45)CC3)c2C1 (stereo unspecified) turned out to be 1.18

The value of log10 Ki measured for the compound C[C@@H]1Oc2c(cccc2N2CCN(CCCc3c[nH]c4ccc(F)cc34)CC2)NC1=O turned out to be 0.67

The value of log10 Ki measured for the compound O=C1COc2c(cccc2N2CCN(CCCc3c[nH]c4ccccc34)CC2)N1 turned out to be 0.63

The value of log10 Ki measured for the compound CC1Oc2c(N3CCN(CCCc4c[nH]c5ccccc45)CC3)cccc2N(C)C1=O (stereo unspecified) turned out to be 1.55

The value of log10 Ki measured for the compound COc1ccc2[nH]cc(CCCN3CCN(c4cccc5c4OCCO5)CC3)c2c1 turned out to be 1.18

The value of log10 Ki measured for the compound c1cc2c(c(N3CCN(CCc4c[nH]c5ccccc45)CC3)c1)OCCO2 turned out to be 1.65

The value of log10 Ki measured for the compound Fc1ccc2[nH]cc(CCCN3CCN(c4cccc5c4OCCO5)CC3)c2c1 turned out to be 1.28

The value of log10 Ki measured for the compound C[C@H]1Oc2c(cccc2N2CCN(CCCc3c[nH]c4ccc(F)cc34)CC2)NC1=O turned out to be 0.84

The value of log10 Ki measured for the compound CC1(C)Oc2c(cccc2N2CCN(CCCc3c[nH]c4ccccc34)CC2)NC1=O turned out to be 0.87

The value of log10 Ki measured for the compound CC1Oc2c(cccc2N2CCN(CCCc3c[nH]c4ccccc34)CC2)NC1=O (stereo unspecified) turned out to be 0.65

The value of log10 Ki measured for the compound Cc1cccc2c(CCCN3CCN(c4cccc5c4OCCO5)CC3)c[nH]c12 turned out to be 1.20

The value of log10 Ki measured for the compound c1cc2c(c(N3CCN(CCCc4c[nH]c5ccccc45)CC3)c1)CCCN2 turned out to be 1.05

The value of log10 Ki measured for the compound c1cc2c(c(N3CCN(CCCc4c[nH]c5ccccc45)CC3)c1)OCCO2 turned out to be 1.32

The value of log10 Ki measured for the compound CN1CCCc2c1cccc2N1CCN(CCCc2c[nH]c3ccccc23)CC1 turned out to be 1.95

The value of log10 Ki measured for the compound c1cc2c(c(N3CCN(CCCCc4c[nH]c5ccccc45)CC3)c1)OCCO2 turned out to be 0.71

The value of log10 Ki measured for the compound C[C@@H]1Oc2c(cccc2N2CCN(CCCc3c[nH]c4ccccc34)CC2)NC1=O turned out to be 0.00

The value of log10 Ki measured for the compound c1cc2c(c(N3CCN(CCCCCc4c[nH]c5ccccc45)CC3)c1)OCCO2 turned out to be 0.96
